# tested on: hMC4-R (Homo sapiens (Human))
# measurement notes: High and low density hMC4-R functional assay (cAMP, HEK293-T-REx-MC4-R cells)
# Format: cell-based
# particulars: 10 ng/mL Doxycycline (high density hMC4-R system); NDP-α-MSH = 100%; read-out: Intrinsic Activity (%)
If the reported Emax equals or exceeds 90%, assign yes (1). If not, assign no (0).

Solved cases (3 shown):
smiles string: CC(=O)N[C@@H](CCCNC(=N)N)C(=O)N[C@H]1CCC(=O)NCCC[C@@H](C(N)=O)NC(=O)[C@H](Cc2c[nH]c3ccccc23)NC(=O)[C@H](CCCNC(=N)N)NC(=O)[C@@H](Cc2ccc(-c3ccccc3)cc2)NC(=O)[C@H](CCN)NC1=O
tested on: hMC4-R (Homo sapiens (Human))
assigned label: yes (1)

smiles string: CC(=O)N[C@@H](CCCNC(=N)N)C(=O)N[C@H]1CCC(=O)NCCC[C@@H](C(N)=O)NC(=O)[C@H](Cc2c[nH]c3ccccc23)NC(=O)[C@H](CCCNC(=N)N)NC(=O)[C@@H](Cc2ccc(Cl)cc2Cl)NC(=O)[C@H](CCN)NC1=O
tested on: hMC4-R (Homo sapiens (Human))
assigned label: yes (1)

smiles string: CC(=O)N[C@H](CCCNC(=N)N)C(=O)N[C@H]1CC(=O)NCCCC[C@@H](C(N)=O)NC(=O)[C@H](Cc2c[nH]c3ccccc23)NC(=O)[C@H](CCCNC(=N)N)NC(=O)[C@@H](Cc2ccccc2Cl)NC(=O)[C@H](CCC(N)=O)NC1=O
tested on: hMC4-R (Homo sapiens (Human))
assigned label: no (0)

Exercise: In plain terms: is recorded Emax at least 90% for CC(=O)N[C@@H](CCCNC(=N)N)C(=O)N[C@H]1CCC(=O)NCCC[C@@H](C(N)=O)NC(=O)[C@H](Cc2c[nH]c3ccccc23)NC(=O)[C@H](CCCNC(=N)N)NC(=O)[C@@H](Cc2ccccc2Cl)NC(=O)[C@H](CN)NC1=O ?
Solution: no (0)

Exercise: Answer whether Emax of CC(=O)N[C@@H](CCCNC(=N)N)C(=O)N[C@H]1CCC(=O)NCCC[C@@H](C(N)=O)NC(=O)[C@H](Cc2c[nH]c3ccccc23)NC(=O)[C@H](CCCNC(=N)N)NC(=O)[C@@H](Cc2ccccc2F)NC(=O)[C@H](CCC(N)=O)NC1=O is greater than or equal to 90%.
Solution: yes (1)

Exercise: Check this compound for Emax at or above 90%: CC(=O)N[C@@H](CCCNC(=N)N)C(=O)N[C@H]1CCC(=O)NCCC[C@@H](C(N)=O)NC(=O)[C@H](Cc2c[nH]c3ccccc23)NC(=O)[C@H](CCCNC(=N)N)NC(=O)[C@@H](Cc2ccccc2F)NC(=O)[C@H](CC(N)=O)NC1=O
Solution: yes (1)

====

# tested on: hMC4-R (Homo sapiens (Human), UniProt P32245)
# Sequence (P32245 whole entry): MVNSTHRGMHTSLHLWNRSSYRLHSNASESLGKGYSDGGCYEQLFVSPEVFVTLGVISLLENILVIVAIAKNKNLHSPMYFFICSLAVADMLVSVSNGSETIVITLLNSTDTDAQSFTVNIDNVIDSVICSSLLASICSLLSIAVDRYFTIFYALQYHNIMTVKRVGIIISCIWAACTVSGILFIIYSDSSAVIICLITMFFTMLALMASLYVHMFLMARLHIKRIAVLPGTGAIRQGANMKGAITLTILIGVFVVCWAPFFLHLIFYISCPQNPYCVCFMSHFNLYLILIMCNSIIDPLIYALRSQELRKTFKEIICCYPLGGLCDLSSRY
# measurement notes: High and low density hMC4-R functional assay (cAMP, HEK293-T-REx-MC4-R cells)
# Type: cell-based
# particulars: 0.1 ng/mL Doxycycline (low density hMC4-R system); NDP-α-MSH = 100%; read-out: Intrinsic Activity (%)
Positions of bridges follow the written chain, without caps; N, C: chain ends. Non-standard residues stand in square brackets, D forms with d. Residues, ends and D or L forms follow the SMILES beside them. dPhe(4-CN) = N#Cc1ccc(C[C@@H](N)C(=O)O)cc1; Orn = NCCC[C@H](N)C(=O)O
I'd appreciate it if you marked entries 1.0 when Emax is lower than 50% and 0.0 when it is not.

compound: CC(=O)N[C@@H](CCCNC(=N)N)C(=O)N[C@H]1CCC(=O)NCCC[C@@H](C(N)=O)NC(=O)[C@H](Cc2c[nH]c3ccccc23)NC(=O)[C@H](CCCNC(=N)N)NC(=O)[C@@H](Cc2ccc(F)cc2)NC(=O)[C@H](CC(N)=O)NC1=O
assigned label: 0.0
//
compound: CC(=O)N[C@@H](CCCNC(=N)N)C(=O)N[C@H]1CCC(=O)NCCC[C@@H](C(N)=O)NC(=O)[C@H](Cc2c[nH]c3ccccc23)NC(=O)[C@H](CCCNC(=N)N)NC(=O)[C@@H](Cc2ccc(Cl)cc2Cl)NC(=O)[C@H](CCN)NC1=O
assigned label: 1.0
//
compound: CC(=O)N[C@@H](CCCNC(=N)N)C(=O)N[C@H]1CCC(=O)NCCC[C@@H](C(N)=O)NC(=O)[C@H](Cc2c[nH]c3ccccc23)NC(=O)[C@H](CCCNC(=N)N)NC(=O)[C@@H](Cc2ccccc2Cl)NC(=O)[C@H](CCC(N)=O)NC1=O
assigned label: 0.0
//
compound: CC(=O)N[C@@H](CCCNC(=N)N)C(=O)N[C@H]1CCC(=O)NCCC[C@@H](C(=O)O)NC(=O)[C@H](Cc2c[nH]c3ccccc23)NC(=O)[C@H](CCCNC(=N)N)NC(=O)[C@@H](Cc2ccc(C#N)cc2)NC(=O)[C@H](CC(=O)O)NC1=O [Example 107] (Ac-RED[dPhe(4-CN)]RW[Orn]-OH; lactam 2-7)
assigned label: 1.0
//
compound: CC(=O)N[C@@H](CCCNC(=N)N)C(=O)N[C@H]1CCC(=O)NCCC[C@@H](C(N)=O)NC(=O)[C@H](Cc2c[nH]c3ccccc23)NC(=O)[C@H](CCCNC(=N)N)NC(=O)[C@@H](Cc2ccc([N+](=O)[O-])cc2)NC(=O)[C@H](CCN)NC1=O
assigned label: 1.0
//
compound: CC(=O)N[C@@H](CCCNC(=N)N)C(=O)N[C@H]1CCC(=O)NCCC[C@@H](C(N)=O)NC(=O)[C@H](Cc2c[nH]c3ccccc23)NC(=O)[C@H](CCCNC(=N)N)NC(=O)[C@@H](Cc2ccccc2Cl)NC(=O)[C@H](COCc2ccccc2)NC1=O
assigned label: 1.0

Exercise: Please indicate whether the reported Emax of CC(=O)N[C@@H](CCCNC(=N)N)C(=O)N[C@H]1CCC(=O)NCCC[C@@H](C(N)=O)NC(=O)[C@H](Cc2c[nH]c3ccccc23)NC(=O)[C@H](CCCNC(=N)N)NC(=O)[C@@H](Cc2cc(F)c(F)c(F)c2)NC(=O)[C@H](CCN)NC1=O is strictly below 50%.
Solution: 1.0

Exercise: Check if Emax falls below 50% for CC(=O)N[C@@H](CCCNC(=N)N)C(=O)N[C@H]1CCCNC(=O)CC[C@@H](C(N)=O)NC(=O)[C@H](Cc2c[nH]c3ccccc23)NC(=O)[C@H](CCCNC(=N)N)NC(=O)[C@@H](Cc2ccccc2C(F)(F)F)NC(=O)[C@H](CCC(N)=O)NC1=O .
Solution: 0.0

====

Please go through the items and note down their Emax.
# tested on: hMC4-R (Homo sapiens (Human), UniProt P32245)
# measurement notes: High and low density hMC4-R functional assay (cAMP, HEK293-T-REx-MC4-R cells)
# Assay type: cell-based
# particulars: 10 ng/mL Doxycycline (high density hMC4-R system); NDP-α-MSH = 100%; read-out: Intrinsic Activity (%)
Answers are plain numbers, in %.

compound: CC(=O)N[C@@H](CCCNC(=N)N)C(=O)N[C@H]1CCCNC(=O)CC[C@@H](C(N)=O)NC(=O)[C@H](Cc2c[nH]c3ccccc23)NC(=O)[C@H](CCCNC(=N)N)NC(=O)[C@@H](Cc2ccc(C#N)cc2)NC(=O)[C@H](CCC(N)=O)NC1=O [Example 94]
output unit: %
Emax: 92

As a next step, examine the compound that follows.
Exercise: Return Emax (reported value) for this compound: CC(=O)N[C@@H](CCCNC(=N)N)C(=O)N[C@H]1CCC(=O)NCCC[C@@H](C(N)=O)NC(=O)[C@H](Cc2c[nH]c3ccccc23)NC(=O)[C@H](CCCNC(=N)N)NC(=O)[C@@H](Cc2ccc(F)cc2)NC(=O)[C@@H]2C[C@@H](O)CN2C1=O [Example 60]
Solution: 95

====

Kindly state Emax for each of the entries shown.
# tested on: hMC4-R (Homo sapiens (Human), UniProt P32245)
# measurement notes: High and low density hMC4-R functional assay (cAMP, HEK293-T-REx-MC4-R cells)
# Format: cell-based
# particulars: 0.1 ng/mL Doxycycline (low density hMC4-R system); NDP-α-MSH = 100%; read-out: Intrinsic Activity (%)
Answers are plain numbers, in %.

// below: answered compounds
smiles string: CC(=O)N[C@@H](CCCNC(=N)N)C(=O)N[C@H]1CCC(=O)NCCC[C@@H](C(=O)O)NC(=O)[C@H](Cc2c[nH]c3ccccc23)NC(=O)[C@H](CCCNC(=N)N)NC(=O)[C@@H](Cc2ccc(C#N)cc2)NC(=O)[C@H](CC(N)=O)NC1=O
Emax / %: 36
--
smiles string: CC(=O)N[C@@H](CCCNC(=N)N)C(=O)N[C@H]1CCCNC(=O)CC[C@@H](C(N)=O)NC(=O)[C@H](Cc2c[nH]c3ccccc23)NC(=O)[C@H](CCCNC(=N)N)NC(=O)[C@@H](Cc2ccccc2F)NC(=O)[C@H](CC(N)=O)NC1=O
Emax / %: 86

Look up Emax for the entries below, preserving their order.
1. CC(=O)N[C@@H](CCCNC(=N)N)C(=O)N[C@H]1CCCNC(=O)CC[C@@H](C(N)=O)NC(=O)[C@H](Cc2c[nH]c3ccccc23)NC(=O)[C@H](CCCNC(=N)N)NC(=O)[C@@H](Cc2ccccc2C)NC(=O)[C@H](CC(N)=O)NC1=O
2. CC(=O)N[C@@H](CCCNC(=N)N)C(=O)N[C@H]1CCC(=O)NCCC[C@@H](C(N)=O)NC(=O)[C@H](Cc2c[nH]c3ccccc23)NC(=O)[C@H](CCCNC(=N)N)NC(=O)[C@@H](Cc2cccc(Cl)c2)NC(=O)[C@H](CN)NC1=O

Solution:
68
6
